Target: T1, human IL4Rα/Fc (R and D Systems 604-4R) (human, UniProt P24394 26-231, limits assumed, biotin labelled in the assay of Example 5)
T1 construct: bought protein; also called IL-4Rα/Fc (R&D systems Cat. No. 604-4R-050); not shown: Fc part of the bought fusion
T1 sequence (looked up): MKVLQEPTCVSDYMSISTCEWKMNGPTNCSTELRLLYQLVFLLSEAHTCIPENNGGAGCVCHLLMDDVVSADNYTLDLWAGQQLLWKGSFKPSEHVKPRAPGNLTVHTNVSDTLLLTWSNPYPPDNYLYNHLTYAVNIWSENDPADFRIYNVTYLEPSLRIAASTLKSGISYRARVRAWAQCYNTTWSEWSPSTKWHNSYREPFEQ
Experiment: HTRF receptor-ligand assay, purified scFv against biotinylated human IL4
pKi: −log10 of the molar value.
Collected pKi values appear next to each entry.
Experimental Readout: pKi

1) Antibody 27 scFv (scFv, V domains shown, tested as purified scFv) VH: QVQLVQSGAEVRKPGASVKVSCKASGYAFTSYYMHWARQAPGQGLEWMGIINPSGGSTSYAQKFQGRVTMTRDTSTSTVYMELSSLRPEDTAVYYCARGKYWMYDWGKGTQVTVSS VL: QSVLTQPPLVSAAPGQKVTISCSGGSSNIGNSYVSWYQRLPGTAPKLLIYDNNKRPSGIPDRFSGSKSGTSATLAITGLQTGDEADYYCGTWDTSTVWEWPFGTGTKLTVL ... 10.20
2) Antibody 13 scFv (scFv, V domains shown, tested as purified scFv) VH: QVQLVQSGAEVKKPGASVKVSCKASGYAFTSYYMHWARQAPGQGLEWMGIINPSGGSTSYAQKFQGRVTMTRDTSTSTVYMELSSLRSEDTAVYYCARGKWWLYDWGKGTLVTVSS VL: QSVLTQPPSVSAAPGQKVTISCSGGSSNIGNSYVSWYQQLPGTAPKLLIYDNNKRPSGIPDRFSGSKSGTSATLAITGLQTGDEADYYCGTWDTSTTLQPLFGTGTKLTVL ... 9.52
